Recorded values, source ChEMBL document CHEMBL5143699.

Assay: […] of the compound in rat muscle at 1 mg/kg, po or 0.5 mg/kg, iv
Format: ADME, organism-based
endpoint_label: Kp
Answer with a bare number; do not write a unit.

// known answers, use as guide
smiles_notation | Kp
CS(C)(=O)=Nc1ccc(-c2ccc(-c3nc4cc(O[C@@H]5CO[C@H](CO)C5)[nH]c4cc3F)cc2)cc1 | 0.63
CS(C)(=O)=Nc1ccc(-c2ccc(-c3nc4cc(O[C@@H]5CO[C@H]6[C@@H]5OC[C@H]6O)[nH]c4cc3F)cc2)nc1 | 0.98
CS(C)(=O)=Nc1ccc(-c2ccc(-c3nc4cc(O[C@@H]5CO[C@H]6[C@@H]5OC[C@H]6O)[nH]c4cc3F)cc2)cc1 | 0.61

Can you share its Kp? I mean this compound: "O=S1(=Nc2ccc(-c3ccc(-c4nc5cc(O[C@@H]6CO[C@H]7[C@@H]6OC[C@H]7O)[nH]c5cc4F)cc3)cc2)CCCC1" 0.67

---

Target: Cytochrome P450 3A4 (Homo sapiens, UniProt P08684)
Sequence (P08684 whole entry): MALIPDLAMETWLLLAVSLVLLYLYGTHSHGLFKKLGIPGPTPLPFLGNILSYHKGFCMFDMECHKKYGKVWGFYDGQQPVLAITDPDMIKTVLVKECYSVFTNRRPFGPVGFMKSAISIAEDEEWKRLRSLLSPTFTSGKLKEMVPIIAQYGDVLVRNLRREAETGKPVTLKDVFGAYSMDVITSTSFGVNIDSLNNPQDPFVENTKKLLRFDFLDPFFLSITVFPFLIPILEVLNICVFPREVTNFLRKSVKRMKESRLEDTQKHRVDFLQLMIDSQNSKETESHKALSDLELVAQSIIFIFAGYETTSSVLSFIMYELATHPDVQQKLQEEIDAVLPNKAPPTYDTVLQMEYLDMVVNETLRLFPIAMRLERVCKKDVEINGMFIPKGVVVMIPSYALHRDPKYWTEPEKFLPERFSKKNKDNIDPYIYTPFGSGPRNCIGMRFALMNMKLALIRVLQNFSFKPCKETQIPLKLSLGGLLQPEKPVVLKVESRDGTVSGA
endpoint_label: IC50

Form field: reported IC50 of "CS(C)(=O)=Nc1ccc(-c2ccc(-c3nc4cc(O[C@@H]5CO[C@H]6[C@@H]5OC[C@H]6O)[nH]c4cc3F)cc2)nc1" > 10 µM
